- Test system: EKO-35
- Assay type: cell-based, Escherichia coli
- test_parameters: EKO-35; antibiotic alone (PAβN checkerboard)
experimental_endpoint: MICb Alone (µg/mL)
Provide the reading as a plain figure in µg/mL.

Consider the following illustrative entries.
CC(=O)NC[C@H]1CN(c2ccc(N3CCOCC3)c(F)c2)C(=O)O1
16
CO[C@@H]1[C@@H](OC(N)=O)[C@@H](O)[C@H](Oc2ccc3c(O)c(NC(=O)c4ccc(O)c(CC=C(C)C)c4)c(=O)oc3c2C)OC1(C)C
4
CC[C@H]1OC(=O)[C@H](C)[C@@H](O[C@H]2C[C@@](C)(OC)[C@@H](O)[C@H](C)O2)[C@H](C)[C@@H](O[C@@H]2O[C@H](C)C[C@H](N(C)C)[C@H]2O)[C@](C)(O)C[C@@H](C)C(=O)[C@H](C)[C@@H](O)[C@]1(C)O
2

IN: For the molecule CC(=O)O[C@H]1C[C@@]2(C)[C@@H](C[C@@H](O)[C@H]3[C@@]4(C)CC[C@@H](O)[C@@H](C)[C@@H]4CC[C@@]32C)/C1=C(\CCC=C(C)C)C(=O)O , give its reported MICb Alone.
OUT: 4

IN: Find the measured MICb Alone of Cc1onc(-c2ccccc2)c1C(=O)N[C@@H]1C(=O)N2[C@@H]1SC(C)(C)[C@@H]2C(=O)O and report it.
OUT: 0.5

* * *

- Tested on: EKO-35 araC::mexCD (MexCD from P. aeruginosa)
- experiment_summary: MIC susceptibility profiling, efflux platform
- Assay type: cell-based, Escherichia coli
- test_parameters: Table 13B; non-porinated; technical duplicate; read-out: Minimum Inhibitory Concentration, EKO-35 araC::mexCD
Each record here notes measured MIC.
Give your result in µg/mL as a bare value.

IN: Answer with reported MIC of [H]/N=C(\N/C(=N/[H])NCCCCCCNC(=N)NC(=N)Nc1ccc(Cl)cc1)Nc1ccc(Cl)cc1
OUT: 0.391

IN: Let me know recorded MIC for COc1cccc2c1C(=O)c1c(O)c3c(c(O)c1C2=O)C[C@@](O)(C(=O)CO)C[C@@H]3O[C@H]1C[C@H](N)[C@H](O)[C@H](C)O1 , thanks.
OUT: 25

IN: Give the measured MIC for COc1cc(Cc2cnc(N)nc2N)cc(OC)c1OC
OUT: 0.391

IN: Recall and state the measured MIC for [H]/N=C(/N)N[C@H]1[C@H](O)[C@@H](O)[C@H](O[C@@H]2O[C@@H](C)[C@](O)(C=O)[C@H]2O[C@@H]2O[C@@H](CO)[C@H](O)[C@@H](O)[C@@H]2NC)[C@@H](N/C(N)=N\[H])[C@@H]1O .
OUT: 3.12

* * *

- Tested on: E. coli ΔtolC
- experiment_summary: microbe, parasite or virus in culture
- Assay type: cell-based, Escherichia coli
- test_parameters: Escherichia coli, 18 h, read-out: Minimum Inhibitory Concentration, ΔtolC
experimental_endpoint: MIC
Put down the number, then write its unit next to it.

Examples with their reported MIC follow.
COc1cc(Cc2cnc(N)nc2N)cc(OC)c1OC
0.098 µg/mL
CO[C@H]1/C=C/O[C@@]2(C)Oc3c(C)c(O)c4c(O)c(c(/C=N/N5CCN(C)CC5)c(O)c4c3C2=O)NC(=O)/C(C)=C\C=C\[C@H](C)[C@H](O)[C@@H](C)[C@@H](O)[C@@H](C)[C@H](OC(C)=O)[C@@H]1C
6.25 µg/mL
CC[C@H]1OC(=O)[C@H](C)[C@@H](O[C@H]2C[C@@](C)(OC)[C@@H](O)[C@H](C)O2)[C@H](C)[C@@H](O[C@@H]2O[C@H](C)C[C@H](N(C)C)[C@H]2O)[C@](C)(O)C[C@@H](C)C(=O)[C@H](C)[C@@H](O)[C@]1(C)O
3.12 µg/mL
CCCCCCCCCCCCOS(=O)(=O)[O-].[Na+] [SDS, sodium dodecyl sulphate]
15.6 µg/mL
CC[C@H]1OC(=O)[C@H](C)[C@@H](O[C@H]2C[C@@](C)(OC)[C@@H](O)[C@H](C)O2)[C@H](C)[C@@H](O[C@@H]2O[C@H](C)C[C@H](N(C)C)[C@H]2O)[C@](C)(O)C[C@@H](C)CN(C)[C@H](C)[C@@H](O)[C@]1(C)O
0.781 µg/mL

IN: Please report MIC for the following compound: CN[C@@H]1[C@H](O)[C@H](NC)[C@H]2O[C@@]3(O)C(=O)C[C@@H](C)O[C@H]3O[C@@H]2[C@H]1O
OUT: 6.25 µg/mL

IN: In one line, give reported MIC of the entry COc1cccc2c1C(=O)c1c(O)c3c(c(O)c1C2=O)C[C@@](O)(C(C)=O)C[C@@H]3O[C@H]1C[C@H](N)[C@H](O)[C@H](C)O1 .
OUT: 1.56 µg/mL

IN: Please give measured MIC of the following entry: CN(C)c1ccc(O)c2c1C[C@H]1C[C@H]3[C@H](N(C)C)C(O)=C(C(N)=O)C(=O)[C@@]3(O)C(O)=C1C2=O
OUT: 0.098 µg/mL
